- System: SK-OV-3
- test-summary: NCI tumour cell line growth inhibition, 48 h
Activity calls are given as the source filed them. Cut-off read from the data, not from the text of the source: active = GI50 up to about 1.1 µM and inactive = higher.
attribute-measured: GI50

Prompt: Give GI50 (SK-OV-3) of the following molecule: COc1cc(C2S/C(=C/c3ccccc3)C(=O)N2c2ccc([N+](=O)[O-])cc2)cc(OC)c1OC (stereo not given)
Completion: > 100 µM (inactive)

Prompt: GET /values?readout=GI50&system=SK-OV-3&item= CC(=O)CCCCC(=O)Nc1ccc(CC(NC(=O)OC(C)(C)C)C(=O)NCC(=O)OCc2ccccc2)cc1 (stereo not given)
Completion: 23 µM (inactive)

Prompt: Entry O/N=C1/CCCCC1NO (stereo not given) , system SK-OV-3: what GI50 was measured?
Completion: > 100 µM (inactive)

Prompt: Request - read-out GI50 | tested on SK-OV-3 | molecule NC(=O)C1=CC2C3C=CC2(O)C(=O)OC3O1 (stereo not given)
Completion: 13.5 µM (inactive)

Prompt: Missing value: GI50, SK-OV-3, entry Cc1c(-c2nnc(-c3ccc(Cl)cc3)o2)c(=O)n(-c2ccccc2)n1C . Fill in?
Completion: > 100 µM (inactive)
